# Species: Rattus norvegicus
# ASSAY_NOTES: Open TG-GATES - Regimen: Daily Repeat
# Assay type: toxicity, organism-based, Sprague-Dawley
# Set-up: regimen Daily Repeat, gender Male, age 6 weeks
# TEST_CONTEXT: in vivo, po, 100 mg/kg, […], tissue Plasma, route gavage, dose level Low, time 7 day
For each entry below, report its Ca value.
Reply numerically in mg/dL, unit not repeated.

compound CN/C(=N/CCSCc1nc[nH]c1C)NC#N [CIMETIDINE] , Ca observed: 10.7

According to the records, this compound O=C(OC[C@H]1O[C@@H](OC(=O)c2cc(O)c(O)c(OC(=O)c3cc(O)c(O)c(O)c3)c2)[C@H](OC(=O)c2cc(O)c(O)c(OC(=O)c3cc(O)c(O)c(O)c3)c2)[C@@H](OC(=O)c2cc(O)c(O)c(OC(=O)c3cc(O)c(O)c(O)c3)c2)[C@@H]1OC(=O)c1cc(O)c(O)c(OC(=O)c2cc(O)c(O)c(O)c2)c1)c1cc(O)c(O)c(OC(=O)c2cc(O)c(O)c(O)c2)c1 [TANNIC ACID] displays Ca of 11.1

The recorded Ca for Cc1nnc2n1-c1ccc(Cl)cc1C(c1ccccc1Cl)=NC2 [TRIAZOLAM] is 10.9

Entry under test: CNC(=C[N+](=O)[O-])NCCSCc1ccc(CN(C)C)o1 [RANITIDINE] . Its Ca was 10.8

response.value for COC(=O)C1=C(C)NC(C)=C(C(=O)OC)C1c1ccccc1[N+](=O)[O-] [NIFEDIPINE] (field: Ca) = 10.7

Entry CCOc1ccc(NC(C)=O)cc1 [PHENACETIN] — recorded Ca = 11.2

====

Could you please report measured RBC for the items listed next?
# Species: Rattus norvegicus
# ASSAY_NOTES: Open TG-GATES - Regimen: Daily Repeat
# Format: toxicity, organism-based, Sprague-Dawley
# Parameters: regimen Daily Repeat, gender Male, age 6 weeks
# TEST_CONTEXT: in vivo, po, 0 mg/kg, […], tissue Blood, route gavage, dose level Control, time 28 day
Express it in x10_4/ul; write the number only.

Record CCCc1cc(=O)[nH]c(=S)[nH]1 . Reported RBC: 786.4

Recorded result, Nc1c2c(nc3ccccc13)CCCC2 , RBC: 752

Kindly note the recorded RBC for Brc1ccccc1 , which is 765

Given item CC(C)NNC(=O)c1ccncc1 , the value recorded as its RBC is 741.4

The reported RBC of the molecule CN/C(=N/CCSCc1nc[nH]c1C)NC#N was 784

Reported RBC for CNC(=C[N+](=O)[O-])NCCSCc1ccc(CN(C)C)o1 was 779.2

Input NC1=NC(=O)C(c2ccccc2)O1 (stereo not drawn) . Output RBC: 749.2

Per the records, this molecule ( COC(=O)C1=C(C)NC(C)=C(C(=O)OC)C1c1ccccc1[N+](=O)[O-] ) has RBC equal to 643.8

response.value for CCOc1ccc(NC(C)=O)cc1 (field: RBC) = 782.6

Sure, the documented RBC for O=C(OC[C@H]1O[C@@H](OC(=O)c2cc(O)c(O)c(OC(=O)c3cc(O)c(O)c(O)c3)c2)[C@H](OC(=O)c2cc(O)c(O)c(OC(=O)c3cc(O)c(O)c(O)c3)c2)[C@@H](OC(=O)c2cc(O)c(O)c(OC(=O)c3cc(O)c(O)c(O)c3)c2)[C@@H]1OC(=O)c1cc(O)c(O)c(OC(=O)c2cc(O)c(O)c(O)c2)c1)c1cc(O)c(O)c(OC(=O)c2cc(O)c(O)c(O)c2)c1 is 738.4

The recorded RBC for Cc1nnc2n1-c1ccc(Cl)cc1C(c1ccccc1Cl)=NC2 is 812.8

The recorded RBC for CN1C(=O)CCS(=O)(=O)C1c1ccc(Cl)cc1 (stereo not drawn) is 744.8

Record CN(C)CCC(c1ccc(Cl)cc1)c1ccccn1 (stereo not drawn) . Reported RBC: 813.8

====

# Species on record: Rattus norvegicus
# ASSAY_NOTES: Open TG-GATES - Regimen: Single
# Assay type: toxicity, organism-based, Sprague-Dawley
# Design: regimen Single, gender Male, age 6 weeks
# TEST_CONTEXT: in vivo, po, 1000 mg/kg, 6 h, tissue Blood, route gavage, dose level High
OBSERVATION_TYPE: Eos (%)
Write the value in % as a bare number.

// field: Eos; key: CNC(=C[N+](=O)[O-])NCCSCc1ccc(CN(C)C)o1 ; value = 1

Eos measured on CN/C(=N/CCSCc1nc[nH]c1C)NC#N = 0.8

The recorded Eos for entry O=C(OC[C@H]1O[C@@H](OC(=O)c2cc(O)c(O)c(OC(=O)c3cc(O)c(O)c(O)c3)c2)[C@H](OC(=O)c2cc(O)c(O)c(OC(=O)c3cc(O)c(O)c(O)c3)c2)[C@@H](OC(=O)c2cc(O)c(O)c(OC(=O)c3cc(O)c(O)c(O)c3)c2)[C@@H]1OC(=O)c1cc(O)c(O)c(OC(=O)c2cc(O)c(O)c(O)c2)c1)c1cc(O)c(O)c(OC(=O)c2cc(O)c(O)c(O)c2)c1 equals 1

Recorded result, Cc1nnc2n1-c1ccc(Cl)cc1C(c1ccccc1Cl)=NC2 , Eos: 0.6

Value of Eos reported for the molecule COC(=O)C1=C(C)NC(C)=C(C(=O)OC)C1c1ccccc1[N+](=O)[O-] is 0.4

====

# Organism: Rattus norvegicus
# ASSAY_NOTES: Open TG-GATES - Regimen: Single
# Assay type: toxicity, organism-based, Sprague-Dawley
# Design: regimen Single, gender Male, age 6 weeks
# TEST_CONTEXT: in vivo, po, 300 mg/kg, 6 h, tissue Plasma, route gavage, dose level Middle
Lab note: cut-off is 10 mg/dL. Strictly less in IP is T. Exactly 10 mg/dL or more is F.

Is IP of CNC(=C[N+](=O)[O-])NCCSCc1ccc(CN(C)C)o1 [RANITIDINE] strictly below 10 mg/dL? T

Could you please tell me whether IP recorded for Cc1nnc2n1-c1ccc(Cl)cc1C(c1ccccc1Cl)=NC2 [TRIAZOLAM] is less than 10 mg/dL? F

Hello, is IP of the following compound strictly smaller than 10 mg/dL? COC(=O)C1=C(C)NC(C)=C(C(=O)OC)C1c1ccccc1[N+](=O)[O-] [NIFEDIPINE] F

IP strictly < 10 mg/dL for this compound? CN/C(=N/CCSCc1nc[nH]c1C)NC#N [CIMETIDINE] T

====

Record form. Attribute: Fbg. Fill in for each entry.
# Organism: Rattus norvegicus
# ASSAY_NOTES: Open TG-GATES - Regimen: Daily Repeat
# Assay type: toxicity, organism-based, Sprague-Dawley
# Design: regimen Daily Repeat, gender Male, age 6 weeks
# TEST_CONTEXT: in vivo, po, 1000 mg/kg, 72 h, tissue Blood, route gavage, dose level High, time 3 day
Write the value in mg/dL as a bare number.

Entry CCOc1ccc(NC(C)=O)cc1 [PHENACETIN] , Fbg reported as 283.2

Lab note: COC(=O)C1=C(C)NC(C)=C(C(=O)OC)C1c1ccccc1[N+](=O)[O-] [NIFEDIPINE] gave Fbg of 252.6

In plain terms, O=C(OC[C@H]1O[C@@H](OC(=O)c2cc(O)c(O)c(OC(=O)c3cc(O)c(O)c(O)c3)c2)[C@H](OC(=O)c2cc(O)c(O)c(OC(=O)c3cc(O)c(O)c(O)c3)c2)[C@@H](OC(=O)c2cc(O)c(O)c(OC(=O)c3cc(O)c(O)c(O)c3)c2)[C@@H]1OC(=O)c1cc(O)c(O)c(OC(=O)c2cc(O)c(O)c(O)c2)c1)c1cc(O)c(O)c(OC(=O)c2cc(O)c(O)c(O)c2)c1 [TANNIC ACID] has a documented Fbg of 234.6

Record summary for Cc1nnc2n1-c1ccc(Cl)cc1C(c1ccccc1Cl)=NC2 [TRIAZOLAM] : reported Fbg = 278.6

Quick note, Fbg for CNC(=C[N+](=O)[O-])NCCSCc1ccc(CN(C)C)o1 [RANITIDINE] landed at 231.6

Notebook: CN/C(=N/CCSCc1nc[nH]c1C)NC#N [CIMETIDINE] , Fbg read as 228.6

====

# Species on record: Rattus norvegicus
# ASSAY_NOTES: Open TG-GATES - Regimen: Daily Repeat
# Type: toxicity, organism-based, Sprague-Dawley
# Design: regimen Daily Repeat, gender Male, age 6 weeks
# TEST_CONTEXT: in vivo, po, 0 mg/kg, […], tissue Plasma, route gavage, dose level Control, time 14 day
OBSERVATION_TYPE: TP (g/dL)
Respond with the bare value in g/dL.

Recorded result, CC(C)NNC(=O)c1ccncc1 , TP: 5.7

For reference, reported TP for Cc1nnc2n1-c1ccc(Cl)cc1C(c1ccccc1Cl)=NC2 stands at 5.7

Recorded result, NC1=NC(=O)C(c2ccccc2)O1 (configuration not stated) , TP: 6

Recorded result, CN1C(=O)CCS(=O)(=O)C1c1ccc(Cl)cc1 (configuration not stated) , TP: 6.1

# compound CN/C(=N/CCSCc1nc[nH]c1C)NC#N ; its TP = 5.9

# TP (compound: O=C(OC[C@H]1O[C@@H](OC(=O)c2cc(O)c(O)c(OC(=O)c3cc(O)c(O)c(O)c3)c2)[C@H](OC(=O)c2cc(O)c(O)c(OC(=O)c3cc(O)c(O)c(O)c3)c2)[C@@H](OC(=O)c2cc(O)c(O)c(OC(=O)c3cc(O)c(O)c(O)c3)c2)[C@@H]1OC(=O)c1cc(O)c(O)c(OC(=O)c2cc(O)c(O)c(O)c2)c1)c1cc(O)c(O)c(OC(=O)c2cc(O)c(O)c(O)c2)c1 ) is 5.9

Query CCOc1ccc(NC(C)=O)cc1 yields TP of 6
